The measured values listed here are drawn from the RepoRT retention time repository (doi:10.1007/s11356-017-9929-x).

- Method description: RP, GL Sciences Inertsil ODS-4, 150 × 2.1 mm, 3 µm, 40 °C, 0.3 mL/min, estimated dead time 1.1 min; A: water + 5 mM ammonium acetate; B: methanol + 5 mM ammonium acetate; gradient (min/%B) 0/5 30/95 50/95
- Reported conditions: stereoisomer not certain
Observable: LC retention time (min)
Write the answer as a number in min, unit excluded.

1) Nc1ccc(S(=O)(=O)Nc2nccs2)cc1	10.6
2) [2H]C([2H])([2H])OP(N)(=O)SC([2H])([2H])[2H] (stereo not given)	4.22
3) CN1CCN(CC(=O)N2c3ccccc3C(=O)Nc3cccnc32)CC1	15.8
4) CCC(C)c1ccccc1OC(=O)NC (stereo not given)	25.2
5) CNC(=C[N+](=O)[O-])NCCSCc1ccc(CN(C)C)o1	12.5
6) [2H]C([2H])([2H])N(C(=O)Oc1nc(N(C)C)nc(C)c1C)C([2H])([2H])[2H]	22.8

Q: Dear colleague, please send me the reported LC retention time for CCC1CCCC(OC2CCC(N(C)C)C(C)O2)C(C)C(=O)C2=CC3C(C=CC4CC(OC5OC(C)C(OC)C(OC)C5OC)CC43)C2CC(=O)O1 (stereo not given) when you can.
A: 34.5

Q: Dear colleague, please send me the reported LC retention time for CN(C)CCC=C1c2ccccc2CCc2ccccc21 when you can.
A: 28.1

Q: Dear colleague, please send me the reported LC retention time for [2H]C([2H])([2H])N=C(NC#N)NCCSCc1nc[nH]c1C when you can.
A: 13.3

Q: Dear colleague, please send me the reported LC retention time for CN=C(NC#N)NCCSCc1nc[nH]c1C when you can.
A: 13.3
